ASSAYED SYSTEM: General amino acid permease AGP1 (Saccharomyces cerevisiae S288c)
ASSAY OVERVIEW: TOR pathway GFP reporter clone modulation in yeast – S. cerevisiae, GFP-tagged clone panel, flow cytometry (AID 504473);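 also: median GFP fluorescence of the cells measured by high-throughput flow cytometry; test concentration not given here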
CONDITION CONTEXT: S. cerevisiae GFP-tagged strains, 3 h, YCL025C
QUANTITY KIND: GFP ratio to DMSO
Number, no unit, nothing else.

What does the data say about its GFP ratio to DMSO? Entry: `CNc1nc(N)c([N+](=O)[O-])c(Nc2cccc(F)c2)n1`
1.69

What does the data say about its GFP ratio to DMSO? Entry: `CNc1nc(N)c([N+](=O)[O-])c(Nc2cccc(Cl)c2)n1`
0.961

What does the data say about its GFP ratio to DMSO? Entry: `CNc1nc(N)c([N+](=O)[O-])c(Nc2ccccc2OC)n1`
0.804

What does the data say about its GFP ratio to DMSO? Entry: `CO[C@H]1C[C@@H]2CC[C@@H](C)[C@@](O)(O2)C(=O)C(=O)N2CCCC[C@H]2C(=O)O[C@H]([C@H](C)C[C@@H]2CC[C@@H](O)[C@H](OC)C2)CC(=O)[C@H](C)/C=C(\C)[C@@H](O)[C@@H](OC)C(=O)[C@H](C)C[C@H](C)/C=C/C=C/C=C/1C`
2.27

What does the data say about its GFP ratio to DMSO? Entry: `CNc1nc(N)c([N+](=O)[O-])c(Nc2ccccc2)n1`
0.776

----------
Test system: YCR005C
ASSAY OVERVIEW: TOR pathway GFP reporter clone modulation in yeast – S. cerevisiae, GFP-tagged clone panel, flow cytometry (AID 504473);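 also: median GFP fluorescence of the cells measured by high-throughput flow cytometry; test concentration not given here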
CONDITION CONTEXT: S. cerevisiae GFP-tagged strains, 3 h
Calls of active or inactive are those of the source.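 How the source made its calls: active means GFP ratio to DMSO above 1.5 or below 0.66; inactive means the rest.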
QUANTITY KIND: GFP ratio to DMSO

What does the data say about its GFP ratio to DMSO? Entry: `CNc1nc(N)c([N+](=O)[O-])c(Nc2ccccc2)n1`
1.37 (inactive)

What does the data say about its GFP ratio to DMSO? Entry: `CNc1nc(N)c([N+](=O)[O-])c(Nc2cccc(F)c2)n1`
4.96

What does the data say about its GFP ratio to DMSO? Entry: `CNc1nc(N)c([N+](=O)[O-])c(Nc2ccccc2OC)n1`
0.783 (inactive)

What does the data say about its GFP ratio to DMSO? Entry: `CNc1nc(N)c([N+](=O)[O-])c(Nc2cccc(Cl)c2)n1`
2.27

What does the data say about its GFP ratio to DMSO? Entry: `CO[C@H]1C[C@@H]2CC[C@@H](C)[C@@](O)(O2)C(=O)C(=O)N2CCCC[C@H]2C(=O)O[C@H]([C@H](C)C[C@@H]2CC[C@@H](O)[C@H](OC)C2)CC(=O)[C@H](C)/C=C(\C)[C@@H](O)[C@@H](OC)C(=O)[C@H](C)C[C@H](C)/C=C/C=C/C=C/1C`
4.59

----------
System: YMR251W-A
ASSAY OVERVIEW: TOR pathway GFP reporter clone modulation in yeast – S. cerevisiae, GFP-tagged clone panel, flow cytometry (AID 504473);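 also: median GFP fluorescence of the cells measured by high-throughput flow cytometry; test concentration not given here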
CONDITION CONTEXT: S. cerevisiae GFP-tagged strains, 3 h
QUANTITY KIND: GFP ratio to DMSO
Number, no unit, nothing else.

What does the data say about its GFP ratio to DMSO? Entry: `CNc1nc(N)c([N+](=O)[O-])c(Nc2ccccc2OC)n1`
0.286

What does the data say about its GFP ratio to DMSO? Entry: `CO[C@H]1C[C@@H]2CC[C@@H](C)[C@@](O)(O2)C(=O)C(=O)N2CCCC[C@H]2C(=O)O[C@H]([C@H](C)C[C@@H]2CC[C@@H](O)[C@H](OC)C2)CC(=O)[C@H](C)/C=C(\C)[C@@H](O)[C@@H](OC)C(=O)[C@H](C)C[C@H](C)/C=C/C=C/C=C/1C`
1.96

What does the data say about its GFP ratio to DMSO? Entry: `CNc1nc(N)c([N+](=O)[O-])c(Nc2ccccc2)n1`
0.892

What does the data say about its GFP ratio to DMSO? Entry: `CNc1nc(N)c([N+](=O)[O-])c(Nc2cccc(F)c2)n1`
1.64

What does the data say about its GFP ratio to DMSO? Entry: `CNc1nc(N)c([N+](=O)[O-])c(Nc2cccc(Cl)c2)n1`
1.01

Numbers sourced from PubChem BioAssay AID504473.
